Biological target: T1, human PVRIG on cells (human, UniProt Q6DKI7 1-326)
T1 construct: whole, on cells; over-expressed on HEK cells or endogenous on Jurkat and CD8 T cells; also called hPVRIG; HEK hPVRIG cells
T1 sequence (looked up): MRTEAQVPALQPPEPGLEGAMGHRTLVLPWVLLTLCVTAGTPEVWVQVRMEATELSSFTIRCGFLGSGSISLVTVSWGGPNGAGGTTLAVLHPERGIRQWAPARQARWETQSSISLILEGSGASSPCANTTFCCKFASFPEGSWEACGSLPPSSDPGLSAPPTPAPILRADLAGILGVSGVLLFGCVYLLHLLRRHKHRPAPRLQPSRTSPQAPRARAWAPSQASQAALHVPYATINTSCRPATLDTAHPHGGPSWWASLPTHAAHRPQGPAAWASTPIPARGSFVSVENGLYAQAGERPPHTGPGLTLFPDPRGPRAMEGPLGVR
Experiment: FACS, HEK hPVRIG cells (HEK OE)
pEC50: −log10 of the molar value.
Entries and their pEC50 values follow.

| binder | pEC50 |
| --- | --- |
| CHA.7.510 (antibody, V domains shown) VH: QVTLKESGPGILQPSQTLSLTCSFSGFSLNTSGTGVGWIRQPSGKGLEWLTHIWWNDNKFYNTFLKSRLTISKETSNNQVFLKIASVDTADAATYYCARMAYGNLWFVNWGQGTLVAVST VL: DIVLTQSPASLAVSLGQRASISCRASRSVTISGYSYMYWYQQKPGQPPRLLFYLASNLASGVPARFSGSGSGTDFTLNIHPVEEEDAAIYYCQHSRELPYTFGGGTKLEIK | 7.03 |
| CHA.7.534 (antibody, V domains shown) VH: EVQLQQSGAELVKPGASVRLSCTASGFSIRDTYIHWVKQRPEQGLDWIGKIDPANGKSEYDPKFQGRATMTTDTSSNTAYLQLSSLTSEDTAVYYCTRYGYYPYFDVWGAGTTVTVFS VL: SIVMTQTPKFLLVSAGDRVAITCKASQSVRHDVVWYQQKPGQSPKLLIYYASSRYTGVPDRFTGSGYGTDFTFTISTVQAEDLALYFCLQDFSSPWTFGGGTKLEIK | 8.73 |
| CHA.7.526 (antibody, V domains shown) VH: QVQLKESGPGLVAPSQSLSITCTVSGFSLTAYNINWVRQPPGKGLEWLGMIWGDGNTDYNSPLKSRLTISKDNSKSQVFLKMDSLQTDDTARYYCARDLKVRRDSPYTMDYWGQGTSVTVSS VL: NIMMTQSPSSLAVSAGEKVTMSCKSSQSVLYSSNQKNYLAWYQQKPGQSPKLLIYWASNRESGVPDRFTGSGSGTDFTLTISSVQAEDLAVYYCHQYLSSYTFGGGTKLEIK | 8.52 |
| CHA.7.508 (antibody, V domains shown) VH: EVQLQQSGPDLVKPGASMKISCKASGYTFIDYNIHWVKQSQGKSLDWIGYIYPYNGGTGYNQKFKNKATLTVDSSSSTAYMEVRSLTFEDSAVYFCAREADYYGNRGQFDYWGQGTLVTVSA VL: DIQMTQSPASLSVSVGETVTITCRASENIFSNLAWYQQKQGKSPQLLVYGEANLADGVPSRFSGSGSGTQYSLKINSLQSEDFGNYYCQHFWGTPYTFGGGTTLEIK | 8.48 |
| CHA.7.503 (antibody, V domains shown) VH: QVQLQQSGAELAKPGASVKMSCKASGYTFTSNWMHWVKQRPGQGLEWIGYINPSNGYTECNQKFRDKATLSADKSSSTAYMQLNSLTSADSAVYYCALMISAWLPYWGQGTLVTVSA VL: DIVLTQSPASLAISLGQRATISCRASQSVSASSYSYVHWYQQKPGQPPKLLIKYASSLESGVPARFSGSGSGTDFTLNIHPVEEEDTATYYCLHTWEIPYTFGGGTKLEIK | 8.98 |
| CHA.7.514 (antibody, V domains shown) VH: EVQLRQSGADLVKPGASVKLSCTASGFNIKDTYIDWVKQRPEQGLDWIGRIDPANGNTKYDPKFQGKATIITDTSSNTAYLQLSNLTSEDTAVYYCARYGSYPYFDYWGRGTTLAVSS VL: SIVMTQTPKFLLISAGDRVTITCKASQSVRNDVAWYQQKPGQSPKLLMYYASNRYTGVPDRFTGSGYGTDFTFTISTVQAEDLAVYFCQQDYSSPPTFGGGTKLEIK | 8.27 |
| CHA.7.522 (antibody, V domains shown) VH: QVQLQQPGSELVRPGTSVKLSCKASGYTFTSYWVHWVRQRHGQGLEWIGNVYPGSGSTNYDEKFKSKGTLTVDTSSSTAYMHLSSLTSEDSAVYYCTRGVLRFPLDYWGQGTTLTVSS VL: DIVMTQAAPSVPVTPGESVSISCRSSKSLLHSNGNTYLYWFLQRPGQSPHLLIYRMSNLASGVPDRFSGSGSGTAFTLRISRVEAEDVGVYYCMQHLEYPLTFGAGTKLELK | 7.04 |
| CHA.7.528 (antibody, V domains shown) VH: EVQVQQSGPELVKPGASVKISCKASGYTFTKSNMHWVKQSHGKSLEWIGYIYPYNGGTGYNQNFKSKATLTVDISSSTAYMELRSLTLEDSAVYLCAREADYYGNRGQFDYWGQGTLVTVSA VL: DIQMTQSPASLSVSVGETVTITCRASDNIFSNLAWYHQKQGKSPHLLVYGATNLADGVPSRFSGSGSGTQYSLKINSLQSEDFGDYYCQHFWGTPYTFGGGTKLEIK | 8.14 |
| CHA.7.524 (antibody, V domains shown) VH: QVQLQQSGPEVVRPGVSVKISCKGSGYKFPDYVMHWVKQSHAKSLEWIGIISIYSGNTNYNQKFKGKATMTVDKSSSTAYMELARLTSEDSAIYYCAREGDLPMFAYWGQGTLVTVSA VL: QIVLTQSPAIMSASPGEKVTMTCNASSSVSYMYWYQQKPISSPRLLIYDTSNLASGVPVRFSGSGSGTSYSLTIGRMEAEDAATYYCQQWSSYPLTFGAGTKVEVK | 9.34 |
